Reported %Inh values are given for each entry in this list.
- Test system: YANK2
- Construct: gene STK32B
- measurement_setup: concentration: 1 μM, replicates: in singlicate; n = 1;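 also: KINOMEscan kinase panel screen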
measured_quantity: %Inh (%)

INSERT INTO measurements (compound, value) VALUES
  ('Cc1ccc(C)c(NC(=O)Nc2ccc(C)c(-c3ccc(C(=O)Nc4ccncc4)cc3)c2)c1', 0),
  ('Cl.Cl.NCC(NC(=O)c1cc(-c2cccnc2)c(-c2ccnc3[nH]ccc23)s1)c1ccccc1 (centres unmarked)', 0),
  ('Cc1ccc(NC(=O)c2cccc(N3CCCCC3)c2)cc1-c1ccc(C(=O)NCC2CC2)cc1', 11),
  ('CN1CCN(Cc2ccc(NC(=O)Nc3ccc(N(C)c4ccnc(Nc5ccc(CS(C)(=O)=O)cc5)n4)cc3)cc2)CC1.Cl', 0),
  ('Cl.O=C(Nc1ccc(Oc2ccc3[nH]c(NC(=O)c4ccco4)nc3c2)cc1)Nc1cc(C(F)(F)F)ccc1F', 0),
  ('CCNc1nccc(-c2c(-c3ccc(F)cc3)ncn2C2CCN(C)CC2)n1', 0),
  ('CC(=O)Nc1cn2nc(Oc3cccc(NC(=O)c4cccc(C(F)(F)F)c4)c3)ccc2n1', 0),
  ('Fc1cc(Cl)ccc1Nc1ccnc2cc(-c3ccc(CN4CCOCC4)o3)ccc12', 21),
  ('N#CC1(c2cccc(C(=O)Nc3cccc(Oc4ccc5nc(NC(=O)C6CC6)sc5n4)c3)c2)CC1', 9),
  ('COc1cccc(C2=C(Nc3cccc(O)c3)C(=O)NC2=O)c1', 0),
  ('NCCC(NC(=O)c1cc(Br)c(-c2ccnc3[nH]ccc23)s1)c1ccccc1.O=C(O)C(F)(F)F.O=C(O)C(F)(F)F (centres unmarked)', 0),
  ('O=C(Nc1n[nH]c2nc(-c3ccccc3)ccc12)C1CC1', 0),
  ('CNc1nccc(-c2ccc3c(N)n[nH]c3c2)n1', 53),
  ('CCNC(=O)/C=C/c1n[nH]c2cc(Sc3ccccc3C(=O)NC)ccc12', 0),
  ('COc1cc(Nc2nccc(N3CCC(NS(=O)(=O)c4ccc(NC(C)=O)cc4)CC3)n2)cc(OC)c1OC', 7),
  ('COC(=O)Nc1nc2ccc(Oc3ccc(NC(=O)Nc4cc(C(F)(F)F)ccc4F)cc3)cc2[nH]1.Cl', 0),
  ('COc1cc(Nc2ccnc3cc(-c4ccncc4)ccc23)cc(OC)c1OC.Cl', 32);

---

- Test system: PCTK2
- Construct: gene CDK17
- measurement_setup: concentration: 1 μM, replicates: in singlicate; n = 1
measured_quantity: %Inh (%)

INSERT INTO results (compound, value) VALUES
  ('Nc1ncnc2scc(-c3ccc(NC(=O)Cc4cc(F)ccc4F)cc3)c12.O=C(O)C(F)(F)F', 0),
  ('O=C(O)C(F)(F)F.O=c1[nH]ccc2nc(N[C@@H]3CCNC3)nc(Nc3ccc4c(c3)S(=O)(=O)CC4)c12', 71),
  ('O=C(Nc1n[nH]c2nc(-c3ccccc3)ccc12)C1CC1', 23),
  ('Cl.Cl.NCC(NC(=O)c1cc(-c2cccnc2)c(-c2ccnc3[nH]ccc23)s1)c1ccccc1 (centres unmarked)', 14),
  ('CCn1cnc2c(NCc3ccccc3)ncnc21', 0),
  ('CCNc1nccc(-c2c(-c3ccc(F)cc3)ncn2C2CCN(C)CC2)n1', 0),
  ('Cl.N#CCc1ccc(Nc2nccc(Nc3ccc(Oc4ccccc4)cc3)n2)cc1', 0),
  ('N#CC1(c2cccc(C(=O)Nc3cccc(Oc4ccc5nc(NC(=O)C6CC6)sc5n4)c3)c2)CC1', 0),
  ('Cc1ccc(Nc2ccnc(Nc3ccc(C)c(F)c3)n2)cc1O.Cl', 0),
  ('O=C(Nc1n[nH]c2nc(-c3cccc(O)c3)ccc12)C1CC1', 35),
  ('Cc1ccc(-c2ccc3occ(-c4ccc(S(C)=O)cc4)c3c2)nn1 (centres unmarked)', 0),
  ('CSc1ccc(NC2=C(c3ccc(Cl)cc3)C(=O)NC2=O)cc1', 0),
  ('COc1cccc(CC(=O)N2CCc3cc(-c4cn(C)c5ncnc(N)c45)ccc32)c1', 0),
  ('Cc1ccc(NC(=O)c2cccc(N3CCCCC3)c2)cc1-c1ccc(C(=O)NCC2CC2)cc1', 0),
  ('CC(C)c1nc(-c2cccc(NS(=O)(=O)c3c(F)cccc3F)c2)c(-c2ccnc(Nc3ccc(N4CCOCC4)nc3)n2)s1.Cl', 100),
  ('CS(=O)(=O)c1cccc(CNc2nc(Nc3ccc4c(c3)CCC(=O)N4)ncc2C(F)(F)F)c1', 0),
  ('COc1cc(Nc2ccnc3cc(-c4ccncc4)ccc23)cc(OC)c1OC.Cl', 0);

---

- Test system: SgK110
- measurement_setup: concentration: 1 μM, replicates: in singlicate; n = 1
Reported %Inh values are given for each entry in this list.
measured_quantity: %Inh (%)

INSERT INTO assay_data (compound, value) VALUES
  ('COc1cc(Nc2nccc(N3CCC(NS(=O)(=O)c4ccc(NC(C)=O)cc4)CC3)n2)cc(OC)c1OC', 0),
  ('Cl.Cl.NC(CNC(=O)c1cc(Br)c(-c2ccnc3[nH]ccc23)s1)c1ccccc1 (stereo not shown)', 0),
  ('Cc1cccc(Nc2nc(NCCN)ncc2C(N)=O)c1', 91.1),
  ('Cn1cc(-c2cnc(N)c3c(-c4ccc5c(c4)CCN5C(=O)Cc4ccccc4)csc23)cn1', 8);

---

- Test system: CAMK2A
- measurement_setup: concentration: 1 μM, replicates: in singlicate; n = 1
measured_quantity: %Inh (%)

INSERT INTO results (molecule, value) VALUES
  ('CCNC(=O)/C=C/c1n[nH]c2cc(Sc3ccccc3C(=O)NC)ccc12', 0),
  ('COc1cccc(NC(=O)NCCNc2ccnc(Nc3ccc(F)cc3)n2)c1 [GSK1379879]', 0),
  ('Cl.Cl.NC(CNC(=O)c1cc(Br)c(-c2ccnc3[nH]ccc23)s1)c1ccccc1 (centres unmarked) [GSK1322949]', 45),
  ('COC(=O)Nc1nc2ccc(Oc3ccc(CC(=O)Nc4cc(C(F)(F)F)ccc4F)cc3)cc2[nH]1 [GW680903]', 0),
  ('Cc1ccc(-c2ccc3occ(-c4ccc(S(C)=O)cc4)c3c2)nn1 (centres unmarked)', 0);

---

- Test system: SIK
- measurement_setup: concentration: 1 μM, replicates: in singlicate; n = 1
Threshold rule: %Inh greater than or equal to 30% is true (1); below that, false (0).

INSERT INTO measurements (structure_notation, assigned_category) VALUES
  ('CN1CCN(Cc2ccc(NC(=O)Nc3ccc(N(C)c4ccnc(Nc5ccc(CS(C)(=O)=O)cc5)n4)cc3)cc2)CC1.Cl', 'false (0)'),
  ('COc1ccc(NC(=O)c2ccoc2)cc1-c1ccc(C(=O)NCC2CC2)cc1', 'false (0)'),
  ('CN(c1ccc2c(c1)nc(NCc1ccccc1)n2C)c1ccnc(Nc2ccc(CS(C)(=O)=O)cc2)n1.Cl', 'false (0)'),
  ('Fc1cc(Cl)ccc1Nc1ccnc2cc(-c3ccc(CN4CCSCC4)o3)ccc12', 'true (1)'),
  ('N#CC1(c2cccc(C(=O)Nc3cccc(Oc4ccc5nc(NC(=O)C6CC6)sc5n4)c3)c2)CC1', 'true (1)'),
  ('CN(C)CCOc1ccc(-c2cc(-c3ccc(Cl)c(O)c3)c(-c3ccncc3)[nH]2)cc1.Cl.Cl', 'false (0)'),
  ('Cc1cccc(Nc2nc(NCCN)ncc2C(N)=O)c1', 'false (0)'),
  ('CC(=O)Nc1cn2nc(Oc3cccc(NC(=O)c4cccc(C(F)(F)F)c4)c3)ccc2n1', 'true (1)');

---

Reported %Inh values are given for each entry in this list.
- Test system: CAMK1G
- measurement_setup: concentration: 1 μM, replicates: in singlicate; n = 1
measured_quantity: %Inh (%)

INSERT INTO measurements (structure_notation, value) VALUES
  ('O=C(O)C(F)(F)F.O=c1[nH]ccc2nc(N[C@@H]3CCNC3)nc(Nc3ccc4c(c3)S(=O)(=O)CC4)c12', 82),
  ('CCNc1nccc(-c2c(-c3ccc(F)cc3)ncn2C2CCN(C)CC2)n1', 5),
  ('Cc1ccc(O)cc1Nc1ccnc2cc(-c3ccc(CN4CCCCC4)o3)ccc12', 6),
  ('O=C(Nc1n[nH]c2nc(-c3cccc(O)c3)ccc12)C1CC1', 0),
  ('COc1cccc(NC(=O)NCCNc2ccnc(Nc3ccc(F)cc3)n2)c1', 0);

---

Reported %Inh values are given for each entry in this list.
- System: JAK1(JH2domain-pseudokinase)
- measurement_setup: concentration: 1 μM, replicates: in singlicate; n = 1
measured_quantity: %Inh (%)

INSERT INTO assay_data (structure_notation, units_text, value) VALUES
  ('CNc1nccc(-c2ccc3c(N)n[nH]c3c2)n1', '%', 57),
  ('c1ccc(Oc2ccc(Nc3ccnc4cc(-c5ccc(CN6CCCCC6)o5)ccc34)cc2)nc1', '%', 0),
  ('Nc1ncc(-c2ccc3nccc(-c4ccncc4)c3c2)cc1S(=O)(=O)N1CCCCC1', '%', 14),
  ('COc1cccc(NC(=O)NCCNc2ccnc(Nc3ccc(F)cc3)n2)c1', '%', 0),
  ('Cl.O=C(Nc1ccc(Oc2ccc3[nH]c(NC(=O)c4ccco4)nc3c2)cc1)Nc1cc(C(F)(F)F)ccc1F', '%', 0),
  ('O=C(Nc1n[nH]c2nc(-c3ccccc3O)ccc12)C1CC1', '%', 0),
  ('CN(c1ccc(NC(=O)Nc2cccc(Cl)c2)cc1)c1ccnc(N)n1.Cl', '%', 0),
  ('Cc1ccc(NC(=O)c2cccc(N3CCCCC3)c2)cc1-c1ccc(C(=O)NCC2CC2)cc1', '%', 19),
  ('CN1CCN(Cc2ccc(NC(=O)Nc3ccc(N(C)c4ccnc(Nc5ccc(CS(C)(=O)=O)cc5)n4)cc3)cc2)CC1.Cl', '%', 84),
  ('Nc1cccc(-c2ccc3c(N)n[nH]c3c2)c1', '%', 12),
  ('O=C(O)C(F)(F)F.O=c1[nH]ccc2nc(N[C@@H]3CCNC3)nc(Nc3cc(Cl)cc(Cl)c3)c12', '%', 98),
  ('Cc1ccc(C)c(NC(=O)Nc2ccc(C)c(-c3ccc(C(=O)Nc4ccncc4)cc3)c2)c1', '%', 0),
  ('CSc1ccc(NC2=C(c3ccc(Cl)cc3)C(=O)NC2=O)cc1', '%', 0),
  ('COc1cccc2c(-c3ccncc3)c(-c3ccc(F)cc3)nn12', '%', 67),
  ('CC(C)c1nc(-c2cccc(NS(=O)(=O)c3c(F)cccc3F)c2)c(-c2ccnc(Nc3ccc(N4CCOCC4)nc3)n2)s1.Cl', '%', 44),
  ('Cc1ccccc1CC(=O)N1CCc2cc(-c3cn(C)c4ncnc(N)c34)ccc21', '%', 0),
  ('CCNC(=O)/C=C/c1n[nH]c2cc(Sc3ccccc3C(=O)NC)ccc12', '%', 0);

Data provenance is paper PMC5540273.
